Molecular target: T1, GFP-9S library array, motif 4 ND N98M;D124C (synthetic construct, N98M;D124C)
T1 chain: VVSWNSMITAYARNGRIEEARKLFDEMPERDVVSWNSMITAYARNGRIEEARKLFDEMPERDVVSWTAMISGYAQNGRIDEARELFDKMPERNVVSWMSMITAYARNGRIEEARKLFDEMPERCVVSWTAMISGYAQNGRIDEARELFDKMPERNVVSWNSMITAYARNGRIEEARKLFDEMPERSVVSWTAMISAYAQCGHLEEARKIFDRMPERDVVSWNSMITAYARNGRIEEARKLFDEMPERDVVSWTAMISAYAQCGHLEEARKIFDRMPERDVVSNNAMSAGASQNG
Test: high-throughput RNA pulldown from lysate on Ni-NTA beads; HRP: 50 mM Tris pH 8, 150 mM NaCl, 1 mM beta-mercaptoethanol, 50 ug/ml BSA, 3 ug/ml yeast RNA, 0.5% heparin; ITC and FP: Tris pH 8, 200 mM KCl, 5% glycerol; MST: 50 mM Tris pH 8, 200 mM NaCl, 1 mM DTT, BSA, heparin, 0.05% Tween 20
Settings: tags: N-terminal His-eGFP; label: 5' IRDye 800CW
assay.endpoint: Kd (nM)
Please respond with the number in nM and leave the unit unwritten.

stdin: What does the record list as Kd for AUUAUACGUGA (ssRNA) [IR-rpoA-U] ?
stdout: 193

stdin: What does the record list as Kd for AUUAAACGUGA (ssRNA) [IR-rpoA-A] ?
stdout: 85.3
